Each recorded value in this set is attributed to the kinase profiling compilation of Christmann-Franck et al. (2016).

biological target: EPHA2 (human); experiment: radiometric filter-binding kinase assay; conditions: compound 100.0 µM; ATP 50 µM
metric: inhibition (%)

[1] Cc1cccc(C)c1-c1cn2nc(N)nc2cn1
[2] CC(=O)Nc1nc2cnc(-c3c(C)cccc3C)cn2n1
[3] O=C(Nc1cnc2[nH]ccn2c1=O)c1ccccc1
## Input Order the entries above from lowest to highest inhibition. Answer format: the labels, ordered as requested.
## Output 2, 1, 3
(2: 0%, 1: 11%, 3: 31%)

---

molecular target: NEK6 (human) (UniProt Q9HC98); experiment: radiometric filter-binding kinase assay; conditions: compound 100.0 µM; ATP 50 µM
Sequence (Q9HC98 whole entry, looked up): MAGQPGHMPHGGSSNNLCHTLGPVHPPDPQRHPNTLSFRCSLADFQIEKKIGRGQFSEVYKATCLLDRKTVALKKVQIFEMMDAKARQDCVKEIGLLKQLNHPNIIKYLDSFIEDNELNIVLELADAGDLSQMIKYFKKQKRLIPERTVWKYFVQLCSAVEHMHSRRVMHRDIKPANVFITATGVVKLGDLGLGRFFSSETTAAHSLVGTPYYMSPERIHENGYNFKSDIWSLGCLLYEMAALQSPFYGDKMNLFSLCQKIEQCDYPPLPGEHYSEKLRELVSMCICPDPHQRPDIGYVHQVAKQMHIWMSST
metric: inhibition (%)

CC1CN(c2nc3ccccn3c(=O)c2N)CC(C)O1 (stereo not drawn) | 0
COc1ccc(-c2cc3c(=O)[nH]cnc3s2)cc1OC | 60
O=C(Nc1cnc2[nH]cnn2c1=O)c1ccccc1 | 0
O=C(Nc1cnc2[nH]ccn2c1=O)c1ccccc1 | 15

[I] CC(=O)Nc1nc2cnc(-c3c(C)cccc3C)cn2n1
[II] CC(=O)Nc1nc2cnc(-c3ccccc3)cn2n1
[III] O=c1c(NC(=S)NCc2ccccc2)cnc2[nH]ccn12
[IV] COc1ccc(NC(=S)Nc2cnc3[nH]cnn3c2=O)cn1
## Input Place the items in sequence of falling inhibition. Returns: the labels listed in the requested order.
## Output II, III, IV, I
(II: 21%, III: 6%, IV: 3%, I: 0%)

---

target: PAK4 (human); test: radiometric filter-binding kinase assay; conditions: compound 100.0 µM; ATP 5 µM
metric: inhibition (%)

Some compounds with recorded inhibition:
Nc1nc2cnc(-c3ccccc3)cn2n1 | 89
COc1ccc(-c2cc3c(=O)[nH]cnc3s2)cc1OC | 30
COc1ccc(NC(=S)Nc2cnc3[nH]cnn3c2=O)cn1 | 15
Nc1cnc2c(-c3c(F)cccc3F)cccn2c1=O | 50
CC(C)(C)Nc1c(C2CC2)nc2[nH]cnn12 | 0
CC(=O)Nc1nc2cnc(-c3ccccc3)cn2n1 | 47
CC1CN(c2nc3ccccn3c(=O)c2N)CC(C)O1 (stereo not given) | 0
O=C(Nc1cnc2[nH]ccn2c1=O)c1ccccc1 | 20
CC(=O)Nc1nc2cnc(-c3c(C)cccc3C)cn2n1 | 0
CC(C)(C)Nc1c(COCc2ccccc2)nc2[nH]cnn12 | 0

[A] Cc1cccc(C)c1-c1cn2nc(N)nc2cn1
[B] O=c1c(NC(=S)NCc2ccccc2)cnc2[nH]ccn12
[C] O=C(c1cccc(-c2cc3c(=O)[nH]cnc3s2)c1)N1CCOCC1
[D] O=C(Nc1cnc2[nH]cnn2c1=O)c1ccccc1
## Input Hello, I need these entries ordered by inhibition, highest reading first. Thanks! Present the labels in the sequence the task asks for.
## Output C, B, D, A

---

biological target: TAOK1 (human); assay: radiometric filter-binding kinase assay; conditions: compound 100.0 µM; ATP 20 µM
metric: inhibition (%)

O=C(Nc1cnc2[nH]ccn2c1=O)c1ccccc1 | 0

[P] CC(C)(C)Nc1c(COCc2ccccc2)nc2[nH]cnn12
[Q] Cc1cccc(C)c1-c1cn2nc(N)nc2cn1
## Input So which one has the bigger inhibition here, P or Q ? Reply briefly: the label of your chosen item.
## Output Q
(Q: 12%, P: 0%)

---

target: MAPKAPK3 (human); assay: radiometric filter-binding kinase assay; conditions: compound 100.0 µM; ATP 20 µM
metric: inhibition (%)

// below: answered compounds
CC1CN(c2nc3ccccn3c(=O)c2N)CC(C)O1 (configuration not stated) | 70
CC(C)(C)Nc1c(C2CC2)nc2[nH]cnn12 | 10
Nc1nc2cnc(-c3ccccc3)cn2n1 | 40
COc1ccc(NC(=S)Nc2cnc3[nH]cnn3c2=O)cn1 | 37
O=C(Nc1cnc2[nH]ccn2c1=O)c1ccccc1 | 33

[1] COc1ccc(-c2cc3c(=O)[nH]cnc3s2)cc1OC
[2] O=c1cc(-c2ccccc2F)nc2[nH]ccn12
## Input Lowest inhibition? choose 1 or 2 Record your answer as the label of the chosen record.
## Output 2
(2: 15%, 1: 56%)

---

biological target: BTK (human) (UniProt Q06187); assay: radiometric filter-binding kinase assay; details: compound 100.0 µM; ATP 50 µM
Sequence (Q06187 whole entry, looked up): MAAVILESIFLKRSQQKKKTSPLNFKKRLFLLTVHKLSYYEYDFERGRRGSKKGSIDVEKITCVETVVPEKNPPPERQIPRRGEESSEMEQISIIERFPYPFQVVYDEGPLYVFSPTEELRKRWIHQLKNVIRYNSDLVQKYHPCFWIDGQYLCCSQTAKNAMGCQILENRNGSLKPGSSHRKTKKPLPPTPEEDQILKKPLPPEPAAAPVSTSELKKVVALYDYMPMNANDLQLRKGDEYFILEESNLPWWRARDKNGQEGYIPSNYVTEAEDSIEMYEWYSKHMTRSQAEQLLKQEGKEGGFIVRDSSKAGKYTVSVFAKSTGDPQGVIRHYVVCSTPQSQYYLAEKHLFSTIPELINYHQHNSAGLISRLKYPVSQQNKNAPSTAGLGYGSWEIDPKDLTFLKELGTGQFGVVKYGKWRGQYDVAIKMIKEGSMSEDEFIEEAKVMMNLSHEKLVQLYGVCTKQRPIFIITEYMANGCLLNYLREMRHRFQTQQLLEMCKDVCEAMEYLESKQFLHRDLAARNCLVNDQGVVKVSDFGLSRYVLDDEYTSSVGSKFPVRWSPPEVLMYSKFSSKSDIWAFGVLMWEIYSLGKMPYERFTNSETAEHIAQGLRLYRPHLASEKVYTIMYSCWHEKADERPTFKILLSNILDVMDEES
metric: inhibition (%)

[P] CC(C)(C)Nc1c(COCc2ccccc2)nc2[nH]cnn12
[Q] O=c1c(NC(=S)NCc2ccccc2)cnc2[nH]ccn12
## Input Identify the entry with the larger inhibition. Options: P and Q Answer with the label corresponding to your selection.
## Output P
(P: 51%, Q: 16%)

[A] COc1ccc(NC(=S)Nc2cnc3[nH]cnn3c2=O)cn1
[B] CC1CN(c2nc3ccccn3c(=O)c2N)CC(C)O1 (configuration not stated)
## Input Return label of the item with the larger inhibition. Candidates: A , B . Return value: the label identifying the chosen record.
## Output A
(A: 25%, B: 1%)

[1] COc1ccc(-c2cc3c(=O)[nH]cnc3s2)cc1OC
[2] O=C(c1cccc(-c2cc3c(=O)[nH]cnc3s2)c1)N1CCOCC1
## Input Kindly identify which of 1 and 2 has the larger recorded inhibition value. Identify your selection by its label.
## Output 2

---

molecular target: HIPK1 (human); experiment: radiometric filter-binding kinase assay; settings: compound 100.0 µM; ATP 20 µM
metric: inhibition (%)

Some compounds with recorded inhibition:
COc1ccc(NC(=S)Nc2cnc3[nH]cnn3c2=O)cn1 | 0
O=C(Nc1cnc2[nH]ccn2c1=O)c1ccccc1 | 24

[1] CC1CN(c2nc3ccccn3c(=O)c2N)CC(C)O1 (stereo not given)
[2] Nc1cnc2c(-c3c(F)cccc3F)cccn2c1=O
## Input Please choose the item with the lower inhibition value from this pair: 1 and 2 Answer by quoting the chosen item's label.
## Output 1
(1: 0%, 2: 11%)

---

biological target: MAP3K1 (human) (UniProt Q13233); assay: radiometric filter-binding kinase assay; details: compound 100.0 µM; ATP 50 µM
Sequence (Q13233 whole entry, looked up): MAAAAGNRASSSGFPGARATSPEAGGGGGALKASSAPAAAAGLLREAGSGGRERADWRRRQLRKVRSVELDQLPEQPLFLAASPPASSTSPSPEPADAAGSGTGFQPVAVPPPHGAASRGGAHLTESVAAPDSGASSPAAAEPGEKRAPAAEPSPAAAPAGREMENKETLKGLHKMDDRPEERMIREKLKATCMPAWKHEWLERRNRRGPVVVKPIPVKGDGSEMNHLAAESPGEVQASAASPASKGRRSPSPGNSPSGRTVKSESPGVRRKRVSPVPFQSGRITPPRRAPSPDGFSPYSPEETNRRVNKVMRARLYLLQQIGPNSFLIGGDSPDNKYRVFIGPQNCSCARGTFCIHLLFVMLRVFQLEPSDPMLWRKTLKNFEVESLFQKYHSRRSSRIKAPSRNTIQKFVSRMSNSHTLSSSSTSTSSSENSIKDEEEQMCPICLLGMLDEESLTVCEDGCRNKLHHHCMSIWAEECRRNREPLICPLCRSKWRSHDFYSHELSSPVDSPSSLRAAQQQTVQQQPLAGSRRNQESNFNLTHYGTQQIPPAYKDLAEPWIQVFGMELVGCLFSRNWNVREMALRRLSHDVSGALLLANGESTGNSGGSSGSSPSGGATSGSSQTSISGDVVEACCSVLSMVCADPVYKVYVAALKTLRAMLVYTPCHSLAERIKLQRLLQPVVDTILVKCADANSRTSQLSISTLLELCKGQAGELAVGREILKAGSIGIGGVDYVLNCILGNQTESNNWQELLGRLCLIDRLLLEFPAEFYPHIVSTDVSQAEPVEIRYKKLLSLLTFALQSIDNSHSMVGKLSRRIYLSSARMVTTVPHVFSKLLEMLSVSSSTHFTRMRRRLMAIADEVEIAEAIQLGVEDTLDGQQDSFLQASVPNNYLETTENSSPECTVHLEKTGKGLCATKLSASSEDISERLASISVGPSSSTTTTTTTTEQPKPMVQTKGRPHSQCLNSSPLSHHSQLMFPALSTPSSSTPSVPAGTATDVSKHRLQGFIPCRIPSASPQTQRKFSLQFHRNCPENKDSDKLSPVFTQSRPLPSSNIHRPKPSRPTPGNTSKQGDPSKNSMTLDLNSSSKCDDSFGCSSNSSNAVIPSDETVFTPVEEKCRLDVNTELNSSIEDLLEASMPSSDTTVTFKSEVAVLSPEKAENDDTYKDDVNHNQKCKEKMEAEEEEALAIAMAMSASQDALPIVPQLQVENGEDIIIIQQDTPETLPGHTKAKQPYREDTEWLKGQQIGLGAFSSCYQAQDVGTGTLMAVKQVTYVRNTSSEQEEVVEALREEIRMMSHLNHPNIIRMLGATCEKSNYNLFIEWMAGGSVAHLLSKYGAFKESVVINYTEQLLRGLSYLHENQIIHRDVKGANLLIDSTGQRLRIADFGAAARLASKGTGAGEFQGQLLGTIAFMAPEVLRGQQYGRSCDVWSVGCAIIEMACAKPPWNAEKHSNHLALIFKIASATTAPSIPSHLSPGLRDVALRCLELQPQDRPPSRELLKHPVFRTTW
metric: inhibition (%)

Example cases with answers are listed next.
CC(C)(C)Nc1c(COCc2ccccc2)nc2[nH]cnn12 | 0
O=C(c1cccc(-c2cc3c(=O)[nH]cnc3s2)c1)N1CCOCC1 | 0
CC(C)(C)Nc1c(C2CC2)nc2[nH]cnn12 | 0
CC(=O)Nc1nc2cnc(-c3c(C)cccc3C)cn2n1 | 0
O=C(Nc1cnc2[nH]ccn2c1=O)c1ccccc1 | 3

[a] Nc1cnc2c(-c3c(F)cccc3F)cccn2c1=O
[b] O=C(Nc1cnc2[nH]cnn2c1=O)c1ccccc1
[c] O=c1c(NC(=S)NCc2ccccc2)cnc2[nH]ccn12
[d] O=c1cc(-c2ccccc2F)nc2[nH]ccn12
[e] CC(=O)Nc1nc2cnc(-c3ccccc3)cn2n1
## Input Give the ascending ranking of the items by reported inhibition. Please reply with the labels ordered as requested. Many thanks.
## Output c, b, e, a, d

[A] Cc1cccc(C)c1-c1cn2nc(N)nc2cn1
[B] COc1ccc(NC(=S)Nc2cnc3[nH]cnn3c2=O)cn1
## Input When the recorded inhibition values are compared, which is smaller: that of A or that of B ? Please reply using the label of the selected record.
## Output B

---

biological target: UniProt Q02763; test: radiometric filter-binding kinase assay; conditions: compound 100.0 µM; ATP 20 µM
Sequence (Q02763 whole entry, looked up): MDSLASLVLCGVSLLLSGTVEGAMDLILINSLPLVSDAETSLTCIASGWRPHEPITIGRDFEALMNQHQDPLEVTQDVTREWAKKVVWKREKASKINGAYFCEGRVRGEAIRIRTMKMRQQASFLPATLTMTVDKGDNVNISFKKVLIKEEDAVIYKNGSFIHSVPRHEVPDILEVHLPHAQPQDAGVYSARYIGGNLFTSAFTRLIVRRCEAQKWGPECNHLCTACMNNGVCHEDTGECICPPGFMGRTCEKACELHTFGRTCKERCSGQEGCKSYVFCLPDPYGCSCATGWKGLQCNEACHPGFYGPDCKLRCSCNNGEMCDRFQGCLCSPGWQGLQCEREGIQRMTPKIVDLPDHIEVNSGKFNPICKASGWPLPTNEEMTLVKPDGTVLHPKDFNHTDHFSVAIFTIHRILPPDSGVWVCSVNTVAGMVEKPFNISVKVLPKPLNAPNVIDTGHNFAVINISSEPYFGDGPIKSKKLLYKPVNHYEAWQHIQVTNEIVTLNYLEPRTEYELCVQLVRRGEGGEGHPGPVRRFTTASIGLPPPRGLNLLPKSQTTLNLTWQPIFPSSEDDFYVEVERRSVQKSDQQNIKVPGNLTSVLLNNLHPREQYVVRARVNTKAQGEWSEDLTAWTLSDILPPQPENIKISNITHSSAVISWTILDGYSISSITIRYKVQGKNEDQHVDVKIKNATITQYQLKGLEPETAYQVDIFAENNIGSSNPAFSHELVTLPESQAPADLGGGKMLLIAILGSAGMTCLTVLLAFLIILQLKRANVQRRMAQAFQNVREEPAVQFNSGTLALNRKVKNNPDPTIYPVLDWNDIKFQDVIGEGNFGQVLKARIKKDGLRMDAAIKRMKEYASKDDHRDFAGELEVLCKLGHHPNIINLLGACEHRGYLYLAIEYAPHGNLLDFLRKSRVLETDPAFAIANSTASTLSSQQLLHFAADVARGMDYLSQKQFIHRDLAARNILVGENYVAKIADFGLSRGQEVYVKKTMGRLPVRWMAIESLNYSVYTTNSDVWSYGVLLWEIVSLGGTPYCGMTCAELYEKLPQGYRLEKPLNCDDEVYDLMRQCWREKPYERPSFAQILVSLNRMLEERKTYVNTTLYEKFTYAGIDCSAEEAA
metric: inhibition (%)

Use the examples below as a reference point.
COc1ccc(NC(=S)Nc2cnc3[nH]cnn3c2=O)cn1 | 0
O=c1c(NC(=S)NCc2ccccc2)cnc2[nH]ccn12 | 0
CC(=O)Nc1nc2cnc(-c3ccccc3)cn2n1 | 11
O=C(Nc1cnc2[nH]ccn2c1=O)c1ccccc1 | 0
Nc1nc2cnc(-c3ccccc3)cn2n1 | 39

[A] COc1ccc(-c2cc3c(=O)[nH]cnc3s2)cc1OC
[B] Nc1cnc2c(-c3c(F)cccc3F)cccn2c1=O
[C] CC1CN(c2nc3ccccn3c(=O)c2N)CC(C)O1 (stereo not given)
[D] CC(C)(C)Nc1c(C2CC2)nc2[nH]cnn12
## Input Reorder the items by inhibition, least to greatest. List the labels according to the requested ordering.
## Output A, C, D, B
(A: 0%, C: 5%, D: 9%, B: 42%)

---

molecular target: STK11 CAB39 STRADA (human) (UniProt Q9Y376+Q7RTN6+Q15831); assay: radiometric filter-binding kinase assay; settings: compound 100.0 µM; ATP 20 µM
Sequence (Q15831 whole entry, looked up): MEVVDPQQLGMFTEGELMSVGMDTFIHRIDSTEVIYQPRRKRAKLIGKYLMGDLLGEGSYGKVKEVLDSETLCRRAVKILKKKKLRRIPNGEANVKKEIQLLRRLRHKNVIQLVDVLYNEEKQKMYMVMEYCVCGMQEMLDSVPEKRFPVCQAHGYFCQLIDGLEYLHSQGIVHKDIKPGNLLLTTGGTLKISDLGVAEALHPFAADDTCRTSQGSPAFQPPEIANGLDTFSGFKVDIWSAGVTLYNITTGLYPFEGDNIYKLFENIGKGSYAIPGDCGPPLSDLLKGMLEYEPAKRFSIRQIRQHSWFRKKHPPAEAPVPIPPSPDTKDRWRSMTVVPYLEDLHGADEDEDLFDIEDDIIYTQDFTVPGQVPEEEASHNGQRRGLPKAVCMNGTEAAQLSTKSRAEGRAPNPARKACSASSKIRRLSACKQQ
Sequence (Q7RTN6 whole entry, looked up): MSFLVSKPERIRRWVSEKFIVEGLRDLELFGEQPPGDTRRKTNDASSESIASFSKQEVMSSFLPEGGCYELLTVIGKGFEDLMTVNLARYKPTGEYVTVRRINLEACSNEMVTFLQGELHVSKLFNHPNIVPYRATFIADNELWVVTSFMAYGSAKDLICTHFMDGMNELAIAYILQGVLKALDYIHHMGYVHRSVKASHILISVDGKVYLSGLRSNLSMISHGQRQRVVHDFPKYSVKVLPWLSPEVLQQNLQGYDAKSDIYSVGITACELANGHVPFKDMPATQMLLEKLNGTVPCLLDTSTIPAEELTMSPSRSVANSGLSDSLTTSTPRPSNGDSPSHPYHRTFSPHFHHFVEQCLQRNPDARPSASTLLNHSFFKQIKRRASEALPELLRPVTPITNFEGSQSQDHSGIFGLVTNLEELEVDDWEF
Sequence (Q9Y376 whole entry, looked up): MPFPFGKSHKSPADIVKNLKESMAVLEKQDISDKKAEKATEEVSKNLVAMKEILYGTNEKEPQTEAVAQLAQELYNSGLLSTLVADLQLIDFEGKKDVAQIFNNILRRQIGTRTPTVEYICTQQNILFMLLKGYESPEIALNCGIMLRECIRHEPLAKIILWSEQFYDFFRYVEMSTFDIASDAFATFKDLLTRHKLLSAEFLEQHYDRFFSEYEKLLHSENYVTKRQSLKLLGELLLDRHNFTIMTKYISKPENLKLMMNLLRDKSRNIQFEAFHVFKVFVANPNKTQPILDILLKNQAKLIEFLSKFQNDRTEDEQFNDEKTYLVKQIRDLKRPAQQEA
metric: inhibition (%)

Here is how some compounds turned out for inhibition.
O=C(Nc1cnc2[nH]ccn2c1=O)c1ccccc1 | 0
CC(C)(C)Nc1c(C2CC2)nc2[nH]cnn12 | 0

[P] Nc1cnc2c(-c3c(F)cccc3F)cccn2c1=O
[Q] CC(=O)Nc1nc2cnc(-c3ccccc3)cn2n1
## Input Between P and Q , which one has the lower reported inhibition value? Reply with the label of the item you choose.
## Output Q
(Q: 0%, P: 62%)

[A] O=c1cc(-c2ccccc2F)nc2[nH]ccn12
[B] Cc1cccc(C)c1-c1cn2nc(N)nc2cn1
## Input Would you let me know which has the greater inhibition value, A or B ? Identify your selection by its label.
## Output A
(A: 6%, B: 0%)

[A] COc1ccc(NC(=S)Nc2cnc3[nH]cnn3c2=O)cn1
[B] Nc1nc2cnc(-c3ccccc3)cn2n1
## Input Could you tell me which of these two has the smaller inhibition figure? First: A Second: B Refer to your chosen item by its label in the answer.
## Output A
